- TEST SYSTEM: cdc2/cyclinB (Homo sapiens, UniProt P06493)
- Sequence (P06493 whole entry): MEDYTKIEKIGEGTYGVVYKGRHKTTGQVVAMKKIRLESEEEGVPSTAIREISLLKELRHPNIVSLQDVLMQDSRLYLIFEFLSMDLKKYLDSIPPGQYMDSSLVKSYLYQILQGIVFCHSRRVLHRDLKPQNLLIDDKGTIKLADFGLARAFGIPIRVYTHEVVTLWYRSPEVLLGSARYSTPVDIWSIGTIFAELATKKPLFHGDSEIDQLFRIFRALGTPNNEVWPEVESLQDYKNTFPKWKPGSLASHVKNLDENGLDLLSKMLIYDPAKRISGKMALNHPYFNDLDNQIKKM
- Sequence (P14635 whole entry, further chain): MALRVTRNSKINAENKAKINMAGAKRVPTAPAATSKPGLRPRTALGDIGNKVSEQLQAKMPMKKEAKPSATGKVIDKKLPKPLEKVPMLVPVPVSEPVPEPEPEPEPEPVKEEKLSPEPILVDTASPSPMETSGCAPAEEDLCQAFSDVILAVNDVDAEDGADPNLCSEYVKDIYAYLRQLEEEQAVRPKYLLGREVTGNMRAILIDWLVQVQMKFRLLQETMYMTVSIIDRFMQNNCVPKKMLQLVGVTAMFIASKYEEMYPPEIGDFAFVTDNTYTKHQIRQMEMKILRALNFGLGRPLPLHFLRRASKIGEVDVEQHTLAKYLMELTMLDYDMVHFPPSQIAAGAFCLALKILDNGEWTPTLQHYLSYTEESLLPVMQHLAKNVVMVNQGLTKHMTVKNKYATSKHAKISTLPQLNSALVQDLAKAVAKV
- ASSAY NOTES: Cyclin-Dependent Kinase Assay cdc2/cyclinB
PROPERTY NAME: IC50 (nM)

Would you please look over these solved cases?
[[record]]
molecule = "O=c1ccc2cnc(Nc3ccc4[nH]nnc4c3)nc2n1CC1CC1 [Example 564]"
unit_of_measure = "nM"
value_reported = 94.5

[[record]]
molecule = "Cc1ccc(Nc2ncc3ccc(=O)n(C(C)C)c3n2)cc1C [Example 434]"
unit_of_measure = "nM"
value_reported = 470

[[record]]
molecule = "O=c1ccc2cnc(Nc3cccc(O)c3)nc2n1CC1CC1 [Example 578]"
unit_of_measure = "nM"
value_reported = 310


[A] CCn1c(=O)ccc2cnc(Nc3cc(F)cc(F)c3)nc21 [Example 303]
[B] CCn1c(=O)ccc2cnc(Nc3ccc(NC(=O)OC(C)(C)C)cc3)nc21 [Example 288]
[C] CCC(CC)n1c(=O)ccc2cnc(Nc3ccc(NC(C)=O)c(C)c3)nc21 [Example 513]
Task for the reader: rank each entry by its IC50, from the minimum upward. Answer format: the labels, ordered as requested.
C, B, A

[1] CCCn1c(=O)ccc2cnc(Nc3ccc4c(c3)C(C)C(C)N4)nc21 (stereo not drawn) [Example 356]
[2] CC(C)n1c(=O)ccc2cnc(Nc3ccc(Cl)c(C(F)(F)F)c3)nc21 [Example 421]
[3] COc1ccc(Nc2ncc3ccc(=O)n(C4CCCCC4)c3n2)cc1OC [Example 613]
Parameters: sort_field (IC50), sort_dir (desc). Answer format: the labels, ordered as requested.
2, 1, 3

====

- TEST SYSTEM: cdk2/cyclinE (Homo sapiens, UniProt P24941)
- ASSAY NOTES: Cyclin-Dependent Kinase Assay cdk2/cyclinE
- EXPERIMENTAL SETUP: cdk2/E IC50
pIC50: −log10 of the molar value.
PROPERTY NAME: pIC50

Would you please look over these solved cases?
[[record]]
compound = "CCC(C)n1c(=O)ccc2cnc(Nc3ccc(OC)c(OC)c3)nc21 (stereo not shown)"
value_reported = 7.17

[[record]]
compound = "CC(C)(C)OC(=O)Nc1ccc(Nc2ncc3ccc(=O)n(CC4CC4)c3n2)cc1"
value_reported = 6.71

[[record]]
compound = "CCCCn1c(=O)ccc2cnc(Nc3ccc(C#N)c(NC(C)=O)c3)nc21"
value_reported = 7.07

[[record]]
compound = "O=c1ccc2cnc(Nc3ccc(O)c(Cl)c3)nc2n1C1CCCC1"
value_reported = 7.84

[[record]]
compound = "CCCCn1c(=O)ccc2cnc(Nc3ccc(O)cc3F)nc21"
value_reported = 6.49


[a] CCC(C)n1c(=O)ccc2cnc(Nc3cc(OC)cc(C(F)(F)F)c3)nc21 (stereo not shown)
[b] O=c1ccc2cnc(Nc3ccc4cn[nH]c4c3)nc2n1C1CCCC1
[c] CC(C)n1c(=O)ccc2cnc(Nc3ccc4[nH]nnc4c3)nc21
Parameters: sort_field (pIC50), sort_dir (desc). Answer format: the labels, ordered as requested.
b, c, a

[A] CCC(CC)n1c(=O)ccc2cnc(Nc3ccc(C(F)(F)F)cc3)nc21
[B] CC(C)n1c(=O)ccc2cnc(Nc3ccc(C#N)c(C#N)c3)nc21
Could you kindly indicate whether A or B has the higher pIC50 value? Please respond with the label that marks your chosen entry.
A
(A: 6.70, B: 5.96)

[a] O=c1[nH]c2cc(Nc3ncc4ccc(=O)n(C5CCCC5)c4n3)ccc2o1
[b] COc1ccc(Nc2ncc3ccc(=O)n(CC(F)(F)F)c3n2)cc1OC
[c] CCCCn1c(=O)ccc2cnc(Nc3ccc(S(N)(=O)=O)cc3)nc21
[d] O=c1ccc2cnc(Nc3cc(Cl)c(O)c(Cl)c3)nc2n1C1CCCC1
[e] CCn1c(=O)ccc2cnc(Nc3ccc(C#N)cc3)nc21
Task for the reader: rank each entry by its pIC50, from the minimum upward. Answer format: the labels, ordered as requested.
e, b, a, d, c
(e: 5.80, b: 6.01, a: 6.82, d: 7.21, c: 7.96)
